All figures here come from the supplement of paper PMC9433436.

Molecular target: E. coli RNase P holoenzyme (M1 P RNA + rnpA protein) (UniProt P0A7Y8)
Sequence: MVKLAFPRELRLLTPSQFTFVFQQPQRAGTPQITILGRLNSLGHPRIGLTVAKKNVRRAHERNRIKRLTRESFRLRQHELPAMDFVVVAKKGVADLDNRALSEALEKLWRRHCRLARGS
Experiment: relative kcat/Km (krel) vs genomic leader AAAGAU (relative (reference leader = 1)); higher = faster RNase P cleavage
Details: fraction of substrate reacted: ~9-10% (9.79% repeat 1, 9.1% repeat 2)
Over roughly 4,100 sequences, “relative kcat/Km (krel) vs genomic leader AAAGAU” has its median near 1.7; the highest 2% begin near 6.5. For the sample, the highest values were picked, then their nearest neighbours and some sequences at random.

[
  {
    "macromolecule sequence": "CAGTAC",
    "relative kcat/Km": 3.68
  },
  {
    "macromolecule sequence": "GTCACA",
    "relative kcat/Km": 3.73
  },
  {
    "macromolecule sequence": "GGGCAT",
    "relative kcat/Km": 1.03
  },
  {
    "macromolecule sequence": "CCACAC",
    "relative kcat/Km": 1.98
  },
  {
    "macromolecule sequence": "AAGTAC",
    "relative kcat/Km": 3.18
  },
  {
    "macromolecule sequence": "CTATGT",
    "relative kcat/Km": 0.766
  },
  {
    "macromolecule sequence": "ATCTAC",
    "relative kcat/Km": 4.97
  },
  {
    "macromolecule sequence": "CTATCT",
    "relative kcat/Km": 3.05
  },
  {
    "macromolecule sequence": "TGCGCA",
    "relative kcat/Km": 2
  },
  {
    "macromolecule sequence": "CTCACA",
    "relative kcat/Km": 3.32
  },
  {
    "macromolecule sequence": "TAGTAT",
    "relative kcat/Km": 3.26
  },
  {
    "macromolecule sequence": "ATCTAT",
    "relative kcat/Km": 3.93
  },
  {
    "macromolecule sequence": "AGCCTA",
    "relative kcat/Km": 2.05
  },
  {
    "macromolecule sequence": "ACAAAC",
    "relative kcat/Km": 1.92
  },
  {
    "macromolecule sequence": "TAGTAA",
    "relative kcat/Km": 3.7
  },
  {
    "macromolecule sequence": "GCGCAT",
    "relative kcat/Km": 1.99
  },
  {
    "macromolecule sequence": "ATCTAG",
    "relative kcat/Km": 2.49
  }
]

###

Molecular target: E. coli RNase P holoenzyme (M1 P RNA + rnpA protein) (UniProt P0A7Y8)
Sequence: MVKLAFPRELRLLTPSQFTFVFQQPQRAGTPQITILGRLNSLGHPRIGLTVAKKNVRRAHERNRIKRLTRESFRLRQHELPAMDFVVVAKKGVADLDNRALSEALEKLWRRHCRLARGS
Test: relative kcat/Km (krel) vs genomic leader AAAGAU (relative (reference leader = 1)); higher = faster RNase P cleavage
Settings: fraction of substrate reacted: ~26-29% (28.66% repeat 1, 26.4% repeat 2)
In all, about 4,100 sequences were measured (“relative kcat/Km (krel) vs genomic leader AAAGAU”: median about 1.7, highest 2% from about 6.5 on). The sample holds the highest values, similar sequences and a random draw of the others, so the mix is not that of the screen.
A collection of sequences and their measured relative kcat/Km
recorded metric: relative kcat/Km

[
  {
    "macromolecule sequence": "GACTTC",
    "quantitative result": 6.22
  },
  {
    "macromolecule sequence": "GGATAA",
    "quantitative result": 2.82
  },
  {
    "macromolecule sequence": "GTCTTA",
    "quantitative result": 7.65
  },
  {
    "macromolecule sequence": "TTGCCG",
    "quantitative result": 0.519
  },
  {
    "macromolecule sequence": "ACGCAT",
    "quantitative result": 3.39
  },
  {
    "macromolecule sequence": "AGCTTT",
    "quantitative result": 4.09
  },
  {
    "macromolecule sequence": "GCCTTC",
    "quantitative result": 5.81
  }
]

###

Target: E. coli RNase P holoenzyme (M1 P RNA + rnpA protein) (UniProt P0A7Y8)
Sequence: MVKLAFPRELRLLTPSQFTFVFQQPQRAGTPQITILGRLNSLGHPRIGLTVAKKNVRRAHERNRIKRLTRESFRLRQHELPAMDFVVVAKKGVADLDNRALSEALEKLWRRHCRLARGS
Assay: relative kcat/Km (krel) vs genomic leader AAAGAU (relative (reference leader = 1)); higher = faster RNase P cleavage
Conditions: fraction of substrate reacted: ~9-10% (9.79% repeat 1, 9.1% repeat 2)
In all, about 4,100 sequences were measured (“relative kcat/Km (krel) vs genomic leader AAAGAU”: median about 1.7, highest 2% from about 6.5 on). This is one part of a sample in which the highest values are shown more often than they occur.
A collection of sequences and their measured relative kcat/Km
recorded metric: relative kcat/Km

[
  {
    "macromolecule sequence": "ATCCAG",
    "assayed target": "E. coli RNase P holoenzyme (M1 P RNA + rnpA protein) (UniProt P0A7Y8)",
    "quantitative result": 1.67
  },
  {
    "macromolecule sequence": "TCCGAG",
    "assayed target": "E. coli RNase P holoenzyme (M1 P RNA + rnpA protein) (UniProt P0A7Y8)",
    "quantitative result": 2.34
  },
  {
    "macromolecule sequence": "TCCGAC",
    "assayed target": "E. coli RNase P holoenzyme (M1 P RNA + rnpA protein) (UniProt P0A7Y8)",
    "quantitative result": 3.47
  },
  {
    "macromolecule sequence": "GCCCAC",
    "assayed target": "E. coli RNase P holoenzyme (M1 P RNA + rnpA protein) (UniProt P0A7Y8)",
    "quantitative result": 3.04
  },
  {
    "macromolecule sequence": "TTCTAC",
    "assayed target": "E. coli RNase P holoenzyme (M1 P RNA + rnpA protein) (UniProt P0A7Y8)",
    "quantitative result": 5.32
  },
  {
    "macromolecule sequence": "GTCCCC",
    "assayed target": "E. coli RNase P holoenzyme (M1 P RNA + rnpA protein) (UniProt P0A7Y8)",
    "quantitative result": 2.87
  },
  {
    "macromolecule sequence": "GTCCAA",
    "assayed target": "E. coli RNase P holoenzyme (M1 P RNA + rnpA protein) (UniProt P0A7Y8)",
    "quantitative result": 3.74
  }
]

###

Target: E. coli RNase P holoenzyme (M1 P RNA + rnpA protein) (UniProt P0A7Y8)
Sequence: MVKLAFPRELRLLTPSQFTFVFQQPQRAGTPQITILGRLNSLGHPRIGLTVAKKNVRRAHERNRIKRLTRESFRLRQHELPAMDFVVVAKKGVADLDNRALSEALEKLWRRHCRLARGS
Test: relative kcat/Km (krel) vs genomic leader AAAGAU (relative (reference leader = 1)); higher = faster RNase P cleavage
Conditions: fraction of substrate reacted: ~26-29% (28.66% repeat 1, 26.4% repeat 2)
Over roughly 4,100 sequences, “relative kcat/Km (krel) vs genomic leader AAAGAU” has its median near 1.7; the highest 2% begin near 6.5. For the sample, the highest values were picked, then their nearest neighbours and some sequences at random.
Could you please classify the records by relative kcat/Km using these ranges: bucket A (below 3), bucket B (3 to below 6), bucket C (6 or more)

[
  {
    "macromolecule sequence": "ACGTTG",
    "assayed target": "E. coli RNase P holoenzyme (M1 P RNA + rnpA protein) (UniProt P0A7Y8)",
    "class label": "bucket A"
  },
  {
    "macromolecule sequence": "TGAGAC",
    "assayed target": "E. coli RNase P holoenzyme (M1 P RNA + rnpA protein) (UniProt P0A7Y8)",
    "class label": "bucket B"
  },
  {
    "macromolecule sequence": "CACTAC",
    "assayed target": "E. coli RNase P holoenzyme (M1 P RNA + rnpA protein) (UniProt P0A7Y8)",
    "class label": "bucket C"
  },
  {
    "macromolecule sequence": "CTAGAT",
    "assayed target": "E. coli RNase P holoenzyme (M1 P RNA + rnpA protein) (UniProt P0A7Y8)",
    "class label": "bucket A"
  },
  {
    "macromolecule sequence": "GACTAC",
    "assayed target": "E. coli RNase P holoenzyme (M1 P RNA + rnpA protein) (UniProt P0A7Y8)",
    "class label": "bucket C"
  },
  {
    "macromolecule sequence": "TATGTG",
    "assayed target": "E. coli RNase P holoenzyme (M1 P RNA + rnpA protein) (UniProt P0A7Y8)",
    "class label": "bucket A"
  },
  {
    "macromolecule sequence": "GGAGCT",
    "assayed target": "E. coli RNase P holoenzyme (M1 P RNA + rnpA protein) (UniProt P0A7Y8)",
    "class label": "bucket A"
  },
  {
    "macromolecule sequence": "CCCCAT",
    "assayed target": "E. coli RNase P holoenzyme (M1 P RNA + rnpA protein) (UniProt P0A7Y8)",
    "class label": "bucket B"
  },
  {
    "macromolecule sequence": "TTGTAC",
    "assayed target": "E. coli RNase P holoenzyme (M1 P RNA + rnpA protein) (UniProt P0A7Y8)",
    "class label": "bucket C"
  },
  {
    "macromolecule sequence": "GTCTAA",
    "assayed target": "E. coli RNase P holoenzyme (M1 P RNA + rnpA protein) (UniProt P0A7Y8)",
    "class label": "bucket C"
  },
  {
    "macromolecule sequence": "ATCTAA",
    "assayed target": "E. coli RNase P holoenzyme (M1 P RNA + rnpA protein) (UniProt P0A7Y8)",
    "class label": "bucket C"
  },
  {
    "macromolecule sequence": "GGCGGC",
    "assayed target": "E. coli RNase P holoenzyme (M1 P RNA + rnpA protein) (UniProt P0A7Y8)",
    "class label": "bucket A"
  },
  {
    "macromolecule sequence": "AACTAC",
    "assayed target": "E. coli RNase P holoenzyme (M1 P RNA + rnpA protein) (UniProt P0A7Y8)",
    "class label": "bucket C"
  },
  {
    "macromolecule sequence": "ATCCCC",
    "assayed target": "E. coli RNase P holoenzyme (M1 P RNA + rnpA protein) (UniProt P0A7Y8)",
    "class label": "bucket B"
  },
  {
    "macromolecule sequence": "GGCCAC",
    "assayed target": "E. coli RNase P holoenzyme (M1 P RNA + rnpA protein) (UniProt P0A7Y8)",
    "class label": "bucket A"
  },
  {
    "macromolecule sequence": "TCGGAA",
    "assayed target": "E. coli RNase P holoenzyme (M1 P RNA + rnpA protein) (UniProt P0A7Y8)",
    "class label": "bucket A"
  },
  {
    "macromolecule sequence": "TTCTAG",
    "assayed target": "E. coli RNase P holoenzyme (M1 P RNA + rnpA protein) (UniProt P0A7Y8)",
    "class label": "bucket C"
  },
  {
    "macromolecule sequence": "CAGGGC",
    "assayed target": "E. coli RNase P holoenzyme (M1 P RNA + rnpA protein) (UniProt P0A7Y8)",
    "class label": "bucket A"
  },
  {
    "macromolecule sequence": "GTACAG",
    "assayed target": "E. coli RNase P holoenzyme (M1 P RNA + rnpA protein) (UniProt P0A7Y8)",
    "class label": "bucket A"
  },
  {
    "macromolecule sequence": "TGCTAA",
    "assayed target": "E. coli RNase P holoenzyme (M1 P RNA + rnpA protein) (UniProt P0A7Y8)",
    "class label": "bucket B"
  },
  {
    "macromolecule sequence": "TCGTCC",
    "assayed target": "E. coli RNase P holoenzyme (M1 P RNA + rnpA protein) (UniProt P0A7Y8)",
    "class label": "bucket C"
  },
  {
    "macromolecule sequence": "ACGTAT",
    "assayed target": "E. coli RNase P holoenzyme (M1 P RNA + rnpA protein) (UniProt P0A7Y8)",
    "class label": "bucket B"
  },
  {
    "macromolecule sequence": "CGCTAC",
    "assayed target": "E. coli RNase P holoenzyme (M1 P RNA + rnpA protein) (UniProt P0A7Y8)",
    "class label": "bucket C"
  },
  {
    "macromolecule sequence": "AGCTAA",
    "assayed target": "E. coli RNase P holoenzyme (M1 P RNA + rnpA protein) (UniProt P0A7Y8)",
    "class label": "bucket B"
  },
  {
    "macromolecule sequence": "TCGTAT",
    "assayed target": "E. coli RNase P holoenzyme (M1 P RNA + rnpA protein) (UniProt P0A7Y8)",
    "class label": "bucket C"
  },
  {
    "macromolecule sequence": "GACCAA",
    "assayed target": "E. coli RNase P holoenzyme (M1 P RNA + rnpA protein) (UniProt P0A7Y8)",
    "class label": "bucket B"
  },
  {
    "macromolecule sequence": "CACTCC",
    "assayed target": "E. coli RNase P holoenzyme (M1 P RNA + rnpA protein) (UniProt P0A7Y8)",
    "class label": "bucket B"
  },
  {
    "macromolecule sequence": "GCGTCC",
    "assayed target": "E. coli RNase P holoenzyme (M1 P RNA + rnpA protein) (UniProt P0A7Y8)",
    "class label": "bucket A"
  },
  {
    "macromolecule sequence": "GCGTAC",
    "assayed target": "E. coli RNase P holoenzyme (M1 P RNA + rnpA protein) (UniProt P0A7Y8)",
    "class label": "bucket B"
  },
  {
    "macromolecule sequence": "ACATCG",
    "assayed target": "E. coli RNase P holoenzyme (M1 P RNA + rnpA protein) (UniProt P0A7Y8)",
    "class label": "bucket A"
  },
  {
    "macromolecule sequence": "CACCTA",
    "assayed target": "E. coli RNase P holoenzyme (M1 P RNA + rnpA protein) (UniProt P0A7Y8)",
    "class label": "bucket B"
  }
]
